Biological target: CFTR ΔF508 mutant (Homo sapiens, UniProt P13569, DEL508-508)
Construct: expressed in transfected cells; host or cells: CFBE41o- (adenoviral transduction)
Sequence (P13569 with tags, fused parts or gaps DEL508-508): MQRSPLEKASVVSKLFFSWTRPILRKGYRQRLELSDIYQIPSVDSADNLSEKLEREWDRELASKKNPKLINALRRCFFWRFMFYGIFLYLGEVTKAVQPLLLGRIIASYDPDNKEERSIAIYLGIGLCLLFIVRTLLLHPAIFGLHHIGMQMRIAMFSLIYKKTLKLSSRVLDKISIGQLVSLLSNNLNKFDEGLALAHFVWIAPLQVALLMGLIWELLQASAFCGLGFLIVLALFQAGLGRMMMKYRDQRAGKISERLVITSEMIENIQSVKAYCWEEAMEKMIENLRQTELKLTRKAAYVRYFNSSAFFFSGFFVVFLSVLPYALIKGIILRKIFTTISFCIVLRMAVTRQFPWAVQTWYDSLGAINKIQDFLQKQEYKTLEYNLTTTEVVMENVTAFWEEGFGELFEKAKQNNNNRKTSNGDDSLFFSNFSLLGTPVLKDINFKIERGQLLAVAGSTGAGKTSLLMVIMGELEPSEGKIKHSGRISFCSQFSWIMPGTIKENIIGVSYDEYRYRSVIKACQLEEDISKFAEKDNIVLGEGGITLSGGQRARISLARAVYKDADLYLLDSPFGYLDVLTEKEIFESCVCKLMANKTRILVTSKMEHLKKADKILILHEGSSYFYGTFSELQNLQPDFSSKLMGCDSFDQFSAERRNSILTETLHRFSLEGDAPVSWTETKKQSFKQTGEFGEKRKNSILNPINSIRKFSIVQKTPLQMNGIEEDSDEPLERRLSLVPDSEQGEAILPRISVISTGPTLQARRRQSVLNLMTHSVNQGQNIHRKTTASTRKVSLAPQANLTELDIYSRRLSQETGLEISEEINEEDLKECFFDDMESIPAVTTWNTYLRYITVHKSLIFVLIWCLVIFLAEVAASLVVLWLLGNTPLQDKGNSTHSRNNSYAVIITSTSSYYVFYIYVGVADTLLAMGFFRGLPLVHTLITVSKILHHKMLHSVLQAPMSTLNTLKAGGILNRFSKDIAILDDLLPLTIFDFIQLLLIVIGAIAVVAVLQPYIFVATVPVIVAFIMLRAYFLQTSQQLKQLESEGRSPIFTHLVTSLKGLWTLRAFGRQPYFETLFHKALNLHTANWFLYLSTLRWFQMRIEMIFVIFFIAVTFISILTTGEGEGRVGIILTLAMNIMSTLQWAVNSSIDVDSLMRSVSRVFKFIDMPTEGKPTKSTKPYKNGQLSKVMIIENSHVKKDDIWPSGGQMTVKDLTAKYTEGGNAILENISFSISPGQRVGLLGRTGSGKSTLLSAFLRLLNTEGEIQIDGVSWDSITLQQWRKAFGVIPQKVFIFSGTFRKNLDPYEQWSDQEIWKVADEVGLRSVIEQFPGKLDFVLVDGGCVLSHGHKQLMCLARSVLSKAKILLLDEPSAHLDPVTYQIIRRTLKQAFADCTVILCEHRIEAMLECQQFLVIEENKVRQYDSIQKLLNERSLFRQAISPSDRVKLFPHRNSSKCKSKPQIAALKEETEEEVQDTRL
Assay: YFP-halide influx assay for the CFTR-ΔF508 mutation (384 well, FDSS/μCell)
Assay type: cell-based
Settings: CFBE41o- cells, CFTR-ΔF508, 1×D-PBS, fluorescence after 36 seconds
The label class 1 is reserved for EC50 strictly under 30 nM; class 0 covers values equal to or above it.

Query :: Confirm or reject: EC50 of "NC(=O)c1cc(S(=O)(=O)N2CCC(F)(F)CC2)sc1NC(=O)c1ccccc1O" lies strictly below 30 nM
Result :: class 0

Query :: Please do the same for CC(CO)C(=O)Nc1sc(S(=O)(=O)c2ccc(OC(F)(F)F)cc2)cc1C(N)=O (centres unmarked) as well.
Result :: class 0

Query :: Cool, now "Cc1cc(C(F)(F)F)cc(S(=O)(=O)c2cc(C(N)=O)c(NC(=O)C(C)(C)O)s2)c1"
Result :: class 1

Query :: Input "NC(=O)c1cc(S(=O)(=O)N2CCC(F)(F)CC2)sc1NC(=O)c1cc[nH]n1"
Result :: class 1

Query :: Then this compound: "NC(=O)c1cc(S(=O)(=O)c2cccc(F)c2)sc1NC(=O)c1cc[nH]n1"
Result :: class 1

Query :: Please do the same for "CC(C)(CO)C(=O)Nc1sc(S(=O)(=O)c2ccc(F)cc2)cc1C(N)=O" as well.
Result :: class 0

Query :: Next up: "NC(=O)c1cc(S(=O)(=O)c2ccccc2C(F)(F)F)sc1NC(=O)C1(O)CC1"
Result :: class 1

Query :: Same for "CC(C)(O)C(=O)Nc1sc(S(=O)(=O)c2ccccc2C(F)(F)F)cc1C(N)=O"
Result :: class 1
